# test_context: in ethanol, 278.15 K
property_name: solubility (mole fraction)
Write the value as a bare number.

What measured solubility (mole fraction) goes with `CCCc1ncc(C[n+]2ccccc2C)c(N)n1.Cl.[Cl-]` ?
6.8e-05

###

# test_context: in n-butanol, 288.15 K
property_name: solubility (mole fraction)

What measured solubility (mole fraction) goes with `CCCc1ncc(C[n+]2ccccc2C)c(N)n1.Cl.[Cl-]` ?
3.89e-05

###

# test_context: in n-octanol, 298.15 K
property_name: solubility (mole fraction)
Write the value as a bare number.

What measured solubility (mole fraction) goes with `CCCc1ncc(C[n+]2ccccc2C)c(N)n1.Cl.[Cl-]` ?
1.38e-05

###

# test_context: in acetonitrile, 288.15 K
property_name: solubility (mole fraction)
Write the value as a bare number.

What measured solubility (mole fraction) goes with `CCCc1ncc(C[n+]2ccccc2C)c(N)n1.Cl.[Cl-]` ?
1.42e-05

###

# test_context: in isopropanol, 308.15 K
property_name: solubility (mole fraction)
Write the value as a bare number.

What measured solubility (mole fraction) goes with `CCCc1ncc(C[n+]2ccccc2C)c(N)n1.Cl.[Cl-]` ?
7.76e-05

###

# test_context: in acetonitrile, 313.15 K
property_name: solubility (mole fraction)
Write the value as a bare number.

What measured solubility (mole fraction) goes with `CCCc1ncc(C[n+]2ccccc2C)c(N)n1.Cl.[Cl-]` ?
3.27e-05

###

# test_context: in isopropanol, 313.15 K
property_name: solubility (mole fraction)
Write the value as a bare number.

What measured solubility (mole fraction) goes with `CCCc1ncc(C[n+]2ccccc2C)c(N)n1.Cl.[Cl-]` ?
9.49e-05

###

# test_context: in isobutanol, 308.15 K
property_name: solubility (mole fraction)

What measured solubility (mole fraction) goes with `CCCc1ncc(C[n+]2ccccc2C)c(N)n1.Cl.[Cl-]` ?
4.98e-05

###

# test_context: in methanol, 288.15 K
property_name: solubility (mole fraction)
Write the value as a bare number.

What measured solubility (mole fraction) goes with `CCCc1ncc(C[n+]2ccccc2C)c(N)n1.Cl.[Cl-]` ?
0.00059

###

# test_context: in ethanol, 308.15 K
property_name: solubility (mole fraction)
Write the value as a bare number.

What measured solubility (mole fraction) goes with `CCCc1ncc(C[n+]2ccccc2C)c(N)n1.Cl.[Cl-]` ?
0.000273

###

# test_context: in acetonitrile, 308.15 K
property_name: solubility (mole fraction)

What measured solubility (mole fraction) goes with `CCCc1ncc(C[n+]2ccccc2C)c(N)n1.Cl.[Cl-]` ?
2.79e-05
